Data credit: patent US20100278851A1

measured-on: HLA-A31 (human)
assay-protocol: cell-based or functional assay
Output Criterion met for records whose IFN-γ level; PBMCs of PT (HLA type not given) against peptide-pulsed C1R-A31 is lower than 20 ng/mL, Criterion not met for records at or above 20 ng/mL.

I wonder whether RLQEWCSVI [UBE-43] has IFN-γ level; PBMCs of PT (HLA type not given) against peptide-pulsed C1R-A31 below 20 ng/mL. Can you tell?
Criterion not met

I wonder whether NVLHFFNAPL [HNRPL-501] has IFN-γ level; PBMCs of PT (HLA type not given) against peptide-pulsed C1R-A31 below 20 ng/mL. Can you tell?
Criterion not met

I wonder whether DVWSFGILL [Lck-422] has IFN-γ level; PBMCs of PT (HLA type not given) against peptide-pulsed C1R-A31 below 20 ng/mL. Can you tell?
Criterion not met

I wonder whether KLVERLGAA [Lck-246] has IFN-γ level; PBMCs of PT (HLA type not given) against peptide-pulsed C1R-A31 below 20 ng/mL. Can you tell?
Criterion not met

I wonder whether KLKHYGPGWV [CypB-129] has IFN-γ level; PBMCs of PT (HLA type not given) against peptide-pulsed C1R-A31 below 20 ng/mL. Can you tell?
Criterion met

I wonder whether DLLSHAFFA [ppMAPkkk-432] has IFN-γ level; PBMCs of PT (HLA type not given) against peptide-pulsed C1R-A31 below 20 ng/mL. Can you tell?
Criterion not met
